Ref: patent US20060193821

Target: IL-23 (human, p19/p40 heterodimer) (Homo sapiens, UniProt Q9NPF7;P29460 SEQ:20-189,SEQ:23-328)
Sequence (Q9NPF7 20-189, chain 1 of 2): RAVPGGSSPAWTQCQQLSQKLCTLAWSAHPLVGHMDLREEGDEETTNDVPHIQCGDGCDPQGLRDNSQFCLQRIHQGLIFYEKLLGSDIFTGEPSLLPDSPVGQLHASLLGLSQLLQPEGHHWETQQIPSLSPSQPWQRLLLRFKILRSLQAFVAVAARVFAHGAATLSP
Sequence (P29460 23-328, chain 2 of 2): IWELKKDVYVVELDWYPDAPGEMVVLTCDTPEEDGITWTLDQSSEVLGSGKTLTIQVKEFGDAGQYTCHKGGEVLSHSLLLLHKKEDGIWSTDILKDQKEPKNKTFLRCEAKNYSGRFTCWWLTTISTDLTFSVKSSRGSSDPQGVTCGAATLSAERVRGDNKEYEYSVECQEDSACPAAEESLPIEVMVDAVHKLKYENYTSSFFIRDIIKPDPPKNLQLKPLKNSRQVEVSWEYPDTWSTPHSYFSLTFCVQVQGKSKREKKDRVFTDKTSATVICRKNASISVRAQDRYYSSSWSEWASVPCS
Assay: filter; DPBS Ca Mg
Details: tags: R&D Systems, carrier free
observed-property: Kd (nM)
One number for each entry, in nM.

Consider the following items and state reported Kd for each.
1. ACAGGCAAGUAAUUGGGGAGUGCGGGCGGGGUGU (mixed, 2'-OMe C,U and G25; other A,G deoxy; 3'-idT) [ARC1444]
2. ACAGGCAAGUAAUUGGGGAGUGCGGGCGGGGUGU (mixed, 2'-OMe C,U and G9; other A,G deoxy; 3'-idT) [ARC1433]
3. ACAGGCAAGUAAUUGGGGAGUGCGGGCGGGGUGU (mixed, deoxy A,G; 2'-OMe C,U; PS 24-25; 3'-idT [PS linkage 24-25; 2'-OMe C,U at 2,6,10,13,14,21,23,27,32,34; all A,G 2'-deoxy; 3'-inverted dT at 35]) [ARC1460]
4. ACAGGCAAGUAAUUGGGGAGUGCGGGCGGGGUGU (mixed, deoxy A,G; 2'-OMe C,U; PS 15-16; 3'-idT [PS linkage 15-16; 2'-OMe C,U at 2,6,10,13,14,21,23,27,32,34; all A,G 2'-deoxy; 3'-inverted dT at 35]) [ARC1456]

## Result
4.4
2.8
5.8
3.2

Fill in Kd for each of the 2 binders listed.
1. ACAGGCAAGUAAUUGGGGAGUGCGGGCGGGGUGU (mixed, 2'-OMe C,U and G16,G17,G24,G25,G30,G31; other A,G deoxy; PS 6-7,7-8,8-9,10-11,11-12,14-15; 3'-idT [PS 6-7,7-8,8-9,10-11,11-12,14-15; 2'-OMe at 2,6,10,13,14,16,17,21,23,24,25,27,30,31,32,34; other A,G deoxy; 3'-inverted dT at 35]) [ARC1622]
2. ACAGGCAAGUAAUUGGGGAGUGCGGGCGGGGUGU (mixed, 2'-OMe C,U and G4; other A,G deoxy; 3'-idT) [ARC1429]

## Result
1. 0.3
2. 29.5
